These data points were gathered from ChEMBL document CHEMBL2440072.

biological target: Sigma non-opioid intracellular receptor 1 (Homo sapiens, UniProt Q99720); assay: Inhibition of sigma1 receptor (unknown origin)
Sequence (Q99720 whole entry): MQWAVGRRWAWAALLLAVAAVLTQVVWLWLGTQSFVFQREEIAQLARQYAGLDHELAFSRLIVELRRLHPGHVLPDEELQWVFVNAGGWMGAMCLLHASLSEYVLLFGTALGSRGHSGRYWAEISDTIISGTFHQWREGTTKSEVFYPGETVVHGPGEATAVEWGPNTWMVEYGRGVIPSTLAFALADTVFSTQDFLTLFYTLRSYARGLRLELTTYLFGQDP
pKi: −log10 of the molar value.

molecule	pKi
Cc1cc(F)ccc1[C@H]1C[C@@H](N2CCN3C(=O)CC[C@H]3C2)CCN1C(=O)N(C)[C@H](C)c1cc(C(F)(F)F)cc(C(F)(F)F)c1 [ORVEPITANT]	6.03

###

experiment: Oral bioavailability in rat at 1 mg/kg; type: ADME, organism-based; details: in vivo

compound	bioavailability
Cc1cc(F)ccc1[C@H]1C[C@H](N2CCN3C(=O)CC[C@H]3C2)CCN1C(=O)N(C)[C@H](C)c1cc(C(F)(F)F)cc(C(F)(F)F)c1	19%
Cc1cc(F)ccc1[C@H]1C[C@@H](N2CCN3C(=O)CC[C@H]3C2)CCN1C(=O)N(C)[C@H](C)c1cc(C(F)(F)F)cc(C(F)(F)F)c1 [ORVEPITANT]	17%
